# Test system: wheat germ agglutinin (Triticum aestivum), Alexa647-labelled
# ASSAY EXPLANATION: wheat germ agglutinin binders on compound microarrays, profiling panel, artefact control for SMM control-protein annotation, biochemical, small-molecule microarray, 635/667 nm fluorescence (AID 1140);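 note: score merges 667 nm feature emission with signal to noise over triplicate slides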
# EXPERIMENTAL SETUP: WGA-A647 binding, 635 nm fluorescence, higher = more signal
PROPERTY NAME: composite z-score

MOLECULE: COCCOC(=O)N1C(=O)[C@@]2(c3cc(C#CCNC(N)=O)ccc31)[C@H](C(=O)NC[C@H](O)c1ccccc1)[C@H]1C(=O)O[C@H](c3ccccc3)[C@H](c3ccccc3)N1[C@@H]2c1ccccc1OCCO
OBSERVED RESULT: 0.592
--
MOLECULE: O=C1O[C@@H](c2ccccc2)[C@@H](c2ccccc2)N2[C@@H](c3ccc(OCCO)cc3)[C@]3(C(=O)Nc4ccccc43)[C@@H](C(=O)NC[C@H](O)c3ccccc3)[C@H]12
OBSERVED RESULT: 0.638
--
MOLECULE: C=CCN(Cc1ccccc1)C(=O)C(c1cccs1)N(CCOCCO)C(=O)/C=C\C(=O)O (stereo not given)
OBSERVED RESULT: -0.47
--
MOLECULE: COCCCNC(=O)[C@@]1(Cc2ccccc2N=[N+]=[N-])N=C(c2ccc(OCCCO)cc2)O[C@H]1c1ccccc1N=[N+]=[N-]
OBSERVED RESULT: 1.02
--
MOLECULE: Cc1ccc(C(C)CC(O)C2C=CC3C(=O)N(C)C(=O)C3N2NC(=O)OC(C)(C)C)o1 (stereo not given)
OBSERVED RESULT: 0.563
--
MOLECULE: COC(=O)[C@@]1(Cc2ccc(F)cc2)[C@H]2c3cc(C(=O)N(C)C)n(Cc4nc5ccccc5[nH]4)c3C[C@H]2CN1C(=O)c1ccccc1
OBSERVED RESULT: 0.488
--
MOLECULE: C=CC[C@@]1(C(N)=O)N=C(c2ccc(OCCCO)cc2)O[C@@H]1c1ccccc1CN=[N+]=[N-]
OBSERVED RESULT: 1.52
--
MOLECULE: CCCC=C(CCC)[C@@H](NS(=O)(=O)c1cccs1)c1ccc(C(=O)OC)cc1
OBSERVED RESULT: 1.17
--
MOLECULE: COC(=O)[C@@]1(Cc2ccc(F)cc2)[C@H]2c3cc(C(=O)N4CCCC4)n(Cc4ccc(C)o4)c3C[C@H]2CN1C(=O)c1ccccc1
OBSERVED RESULT: 0.794
--
MOLECULE: Cc1ccc(S[C@]2(C(=O)NCC(C)C)CC(=O)N(Cc3cc(C(F)(F)F)cc(C(F)(F)F)c3)[C@@H]2c2ccc(CO)cc2I)cc1
OBSERVED RESULT: -0.192
--
MOLECULE: C#CCN(Cc1ccccc1Br)C(/C=C/c1ccccc1)CO (stereo not given)
OBSERVED RESULT: -0.618
--
MOLECULE: CN1C(=O)[C@]2(Cc3ccccc3)N=C(c3ccc(OCCCO)cc3)O[C@@H]2c2ccccc21
OBSERVED RESULT: 0.831
--
MOLECULE: COC(=O)C(CC#Cc1ccc2c(c1)[C@]1(C(=O)N2)[C@H](C(=O)O)[C@H]2C(=O)O[C@H](c3ccccc3)[C@H](c3ccccc3)N2[C@@H]1c1ccc(O)cc1)C(=O)OC
OBSERVED RESULT: -0.163
--
MOLECULE: CN1C(=O)C2C=CC(C(O)c3cc(C(F)(F)F)cc(C(F)(F)F)c3)N(N3CCCCC3)C2C1=O (stereo not given)
OBSERVED RESULT: 0.615
--
MOLECULE: COc1ccc(C#Cc2ccc3c(c2)[C@]2(C(=O)N3)[C@H](c3ccccc3OCCO)N3[C@H](c4ccccc4)[C@H](c4ccccc4)OC(=O)[C@H]3[C@@H]2C(=O)O)cc1
OBSERVED RESULT: 1.28
--
MOLECULE: CC(C)C[C@@H]1NC(=O)[C@@H]2C[C@H](C(=O)NCCCCCN)[C@H](c3cccc(OCCO)c3)N2C1=O
OBSERVED RESULT: 1.13
--
MOLECULE: CC1(C)[C@@H]2CC(C(O)C3C=CC4C(=O)N(c5ccccc5)C(=O)C4N3Nc3ccccc3)=C[C@H]1C2 (stereo not given in full)
OBSERVED RESULT: 0.241
--
MOLECULE: COc1ccc(C(=O)Nc2ccc(CN3C(=O)[C@@]4(O[C@@H](CCn5cc([C@H](O)c6ccccc6)nn5)[C@H]([Si](C)(C)c5ccc(OC)cc5)[C@H]4C)c4ccccc43)cc2)cc1
OBSERVED RESULT: 0.376
--
MOLECULE: CC(C)C(CO)N1C(=O)[C@@H]2[C@H]3C(=O)OCC=C[C@H]3OC23C=CCN(C(C)C)C(=O)[C@@H]13 (stereo not given in full)
OBSERVED RESULT: -0.131
--
MOLECULE: COc1ccc(CCNC(=O)[C@@]2(Sc3ccc(C)cc3)CC(=O)N(C3CCCCC3)[C@@H]2c2ccc(CO)cc2I)cc1
OBSERVED RESULT: 0.396
